target: monkey DLL3 on CHO-K1-cyno DLL3 cells (cynomolgus monkey); test: FACS, CHO-K1-cyno DLL3 cells, 4 nM antibody
Sequence (chain, as listed by the source limits assumed): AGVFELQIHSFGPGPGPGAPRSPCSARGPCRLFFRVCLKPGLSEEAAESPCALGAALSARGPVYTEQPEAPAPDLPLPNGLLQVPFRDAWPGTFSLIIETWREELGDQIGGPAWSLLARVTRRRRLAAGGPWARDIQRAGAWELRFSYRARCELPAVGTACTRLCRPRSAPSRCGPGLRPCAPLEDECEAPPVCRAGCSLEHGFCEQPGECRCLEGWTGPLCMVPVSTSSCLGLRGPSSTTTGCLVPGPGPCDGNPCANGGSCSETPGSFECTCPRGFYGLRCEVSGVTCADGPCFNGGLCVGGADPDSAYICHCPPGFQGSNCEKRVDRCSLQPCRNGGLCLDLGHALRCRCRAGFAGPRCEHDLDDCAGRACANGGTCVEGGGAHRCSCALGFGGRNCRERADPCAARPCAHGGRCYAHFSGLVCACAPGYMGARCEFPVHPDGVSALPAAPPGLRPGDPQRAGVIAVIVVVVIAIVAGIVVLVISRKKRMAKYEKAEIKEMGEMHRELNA
# Lookup of reported MFI keyed by entry
// return numeric value only (unit: MFI, not printed)

{"binder": "Hab015VL5VH6a-hFc (scFv, part only; not given: scFv linker and human IgG1 Fc, V domains shown, not shown: another chain or arm of the molecule; a dimerising Fc or GST; small tags and cut ends) VL: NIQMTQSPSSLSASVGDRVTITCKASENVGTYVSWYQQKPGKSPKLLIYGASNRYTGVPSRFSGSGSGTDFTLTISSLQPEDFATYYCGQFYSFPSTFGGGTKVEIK VH: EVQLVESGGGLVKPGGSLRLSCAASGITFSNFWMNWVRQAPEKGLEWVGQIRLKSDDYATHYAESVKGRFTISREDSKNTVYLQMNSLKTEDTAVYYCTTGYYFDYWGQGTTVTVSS", "MFI, MFI": 6080}
{"binder": "Hab008L3H5-hFc (scFv, part only; not given: scFv linker and human IgG1 Fc, V domains shown, not shown: another chain or arm of the molecule; a dimerising Fc or GST; small tags and cut ends) VL: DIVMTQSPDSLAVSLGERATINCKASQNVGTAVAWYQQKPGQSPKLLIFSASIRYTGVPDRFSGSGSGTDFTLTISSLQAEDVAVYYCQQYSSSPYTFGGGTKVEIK VH: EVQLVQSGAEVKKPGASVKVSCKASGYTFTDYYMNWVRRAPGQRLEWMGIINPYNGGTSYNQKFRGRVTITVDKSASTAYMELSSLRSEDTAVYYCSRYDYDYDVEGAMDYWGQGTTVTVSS", "MFI, MFI": 12900}
{"binder": "Hab008L1H5-hFc (scFv, part only; not given: VL-VH linker and human IgG1 Fc, V domains shown, not shown: another chain or arm of the molecule; a dimerising Fc or GST; small tags and cut ends) VL: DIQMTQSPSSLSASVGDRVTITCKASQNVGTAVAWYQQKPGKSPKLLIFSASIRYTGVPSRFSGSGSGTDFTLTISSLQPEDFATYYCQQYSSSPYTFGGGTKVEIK VH: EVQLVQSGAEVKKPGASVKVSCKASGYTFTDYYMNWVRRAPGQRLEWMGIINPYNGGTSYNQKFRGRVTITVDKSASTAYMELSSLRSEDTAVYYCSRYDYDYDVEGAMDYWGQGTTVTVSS", "MFI, MFI": 12100}
{"binder": "Hab006VL4VH2-hFc (scFv, part only; not given: scFv linker and human IgG1 Fc, V domains shown, not shown: another chain or arm of the molecule; a dimerising Fc or GST; small tags and cut ends) VL: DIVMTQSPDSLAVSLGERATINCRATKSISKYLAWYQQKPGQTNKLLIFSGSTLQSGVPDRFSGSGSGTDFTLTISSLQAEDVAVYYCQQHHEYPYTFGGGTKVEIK VH: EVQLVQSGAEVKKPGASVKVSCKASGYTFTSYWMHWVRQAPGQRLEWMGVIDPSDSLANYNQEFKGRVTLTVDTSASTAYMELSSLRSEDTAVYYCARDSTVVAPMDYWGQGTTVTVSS", "MFI, MFI": 8510}

I'd like to know its MFI. The binder in question is Hab009VL1aVH1-hFc (scFv, part only; not given: scFv linker and human IgG1 Fc, V domains shown, not shown: another chain or arm of the molecule; a dimerising Fc or GST; small tags and cut ends) VL: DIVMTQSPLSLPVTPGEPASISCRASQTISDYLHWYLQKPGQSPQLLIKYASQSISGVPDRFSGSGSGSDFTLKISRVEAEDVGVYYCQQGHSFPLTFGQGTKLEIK VH: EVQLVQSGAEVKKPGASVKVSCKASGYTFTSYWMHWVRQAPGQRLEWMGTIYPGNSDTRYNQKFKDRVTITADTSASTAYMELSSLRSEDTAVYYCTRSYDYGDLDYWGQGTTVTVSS
19900
